- Target Under Test: T1, chromodomain of CBX4 (human, UniProt O00257-1 8-65)
- T1 sequence (looked up): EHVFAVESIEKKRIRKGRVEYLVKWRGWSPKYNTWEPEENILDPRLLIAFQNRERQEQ
- Method Notes: AlphaScreen or HTRF
Square brackets hold non-standard residues; d marks the D form. * marks the point of attachment. Lys(Me3) = C[N+](C)(C)CCCC[C@H](N)C(=O)O; Bz = O=C(c1ccccc1)*
Outcome Measure: IC50 (µM)
# number only, unit µM dropped from output

Looking for the measured IC50 of Bz-FAL[Lys(Me3)]S-OMe [compound 5] , can you help?
6.9
